ASSAY_TARGET: Thromboxane A2 receptor (Homo sapiens) (UniProt P21731)
Sequence (whole entry): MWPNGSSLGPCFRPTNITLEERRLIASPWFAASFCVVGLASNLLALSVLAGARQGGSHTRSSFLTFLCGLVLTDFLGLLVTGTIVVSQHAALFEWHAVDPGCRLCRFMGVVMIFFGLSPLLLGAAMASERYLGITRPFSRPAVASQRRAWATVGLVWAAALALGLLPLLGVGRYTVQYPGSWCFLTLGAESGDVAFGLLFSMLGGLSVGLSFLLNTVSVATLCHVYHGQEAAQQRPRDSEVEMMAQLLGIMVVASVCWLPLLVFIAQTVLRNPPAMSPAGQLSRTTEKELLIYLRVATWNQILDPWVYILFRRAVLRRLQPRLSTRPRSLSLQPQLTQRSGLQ
TEST_DETAILS: Thromboxane A2 receptor binding affinity was evaluated, which is expressed as competition factor (CF = (IC50-test) / (IC50-standard)
READOUT_KIND: CF

* O=C(O)CCC/C=C\C[C@H]1[C@H](F)CC[C@@H]1NS(=O)(=O)c1ccccc1[N+](=O)[O-] | 10
* Cc1ccc(S(=O)(=O)N[C@H]2CC[C@@H](F)[C@@H]2C/C=C\CCC(=O)O)cc1 | 5.1
* O=C(O)CC/C=C\CC1=CCC[C@@H]1NS(=O)(=O)c1ccccc1 | 12

I. O=C(O)CC/C=C\CC1=CCC[C@@H]1NS(=O)(=O)c1ccc(F)cc1
II. O=C(O)CCC/C=C\CC1=CCC[C@@H]1NS(=O)(=O)c1ccc(F)cc1 (stereo in doubt)
III. O=C(O)COCCCCC1=CCC[C@@H]1NS(=O)(=O)c1ccc(Cl)cc1
IV. O=C(O)CCC/C=C\C[C@H]1[C@H](F)CC[C@@H]1NS(=O)(=O)c1ccc(Cl)c(Cl)c1
Problem: // sort entries: CF, high to low Answer by writing out the labels in the requested order.
Result: I, III, II, IV
